Sourced from ChEMBL document CHEMBL4513216

assay: Toxicity liver stage against HepG2, at 10uM; type: cell-based; design: test concentration 10 uM, cell line HepG2-A16-CD81EGFP; details: human, HepG2-A16-CD81EGFP cells; read-out: INHIBITION
Listed below: cytotoxicity at 10 µM values for each entry.
Field format: number, assumed %, no unit text.

Reference set, count: 4
CO[C@H]1CN(C(=O)c2cccc(C)n2)CC[C@@]12CCCO2 : -6.6
NCC1[C@H]2CN(Cc3cccc(Cl)c3)C[C@@H]12 (stereo partly specified) : -9.17
CCOC(=O)C1CCN(Cc2csc(C(C)(C)C)n2)CC1 : -4.46
c1cc(CN2CCCCC2c2ccc(Nc3cnccn3)nc2)ccn1 (stereo unspecified) : 7.38

Request: Name the recorded cytotoxicity at 10 µM for COc1ccnc(N2CCN(C(C)c3nc(C)no3)CC2)n1 (stereo unspecified) .
Result: -1.33

Request: Name the recorded cytotoxicity at 10 µM for CC1=Nc2c(c(=O)[nH]n2C2CCOCC2)C(c2cccc(O)c2)S1 (stereo unspecified) .
Result: -6.81

Request: Name the recorded cytotoxicity at 10 µM for Cc1c[nH]c(CN2CCN(C)C3(CCC(=O)N(CC4CC4)CC3)C2)n1 (stereo unspecified) .
Result: -5.54

Request: Name the recorded cytotoxicity at 10 µM for CCc1nc(C2CCCN2CC(=O)Nc2nncs2)no1 (stereo unspecified) .
Result: -9.47

Request: Name the recorded cytotoxicity at 10 µM for CCCOCC1CCN(C(=O)Cn2cccc(OC)c2=O)C1 (stereo unspecified) .
Result: 5.88

Request: Name the recorded cytotoxicity at 10 µM for COCCN1CCC(NCc2ccc(Cl)cc2)C1 (stereo unspecified) .
Result: -5.56

Request: Name the recorded cytotoxicity at 10 µM for "Cc1ccc(C(=O)N2CCC3(CC2)c2ccccc2[C@@H](N)[C@@H]3O)c(=O)[nH]1" .
Result: -2.72
